test system: Soybean; assay: Preemergence Herbicidal Activity, Soybean; type: in vivo; settings: Glycine max, pre-emergence, 0.5 kg/ha
Please respond with reported plant injury at 500 g/ha for every item in the list.

Fill blank: measured plant injury at 500 g/ha of the compound CS(=O)(=O)N(c1cc(-n2nnn(CCCF)c2=O)c(F)cc1F)S(C)(=O)=O [Compound 8] is ____.
30%

Fill blank: measured plant injury at 500 g/ha of the compound CCS(=O)(=O)N(COC)c1cc(-n2nnn(CCCF)c2=O)c(F)cc1Cl [Compound 15] is ____.
95%

Fill blank: measured plant injury at 500 g/ha of the compound CCS(=O)(=O)N(c1cc(-n2nnn(CCCF)c2=O)c(F)cc1Cl)S(C)(=O)=O [Compound 11] is ____.
30%

Fill blank: measured plant injury at 500 g/ha of the compound CCS(=O)(=O)N(C)c1cc(-n2nnn(CCCF)c2=O)c(F)cc1Cl [Compound 12] is ____.
80%

// each listed compound needs a value for plant injury at 500 g/ha
1. CCS(=O)(=O)N(c1cc(-n2nnn(CCCF)c2=O)c(F)cc1Cl)S(=O)(=O)CC [Compound 21]
2. CCS(=O)(=O)N(CC#N)c1cc(-n2nnn(CCCF)c2=O)c(F)cc1Cl [Compound 16]

1. 20%
2. 80%

// each listed compound needs a value for plant injury at 500 g/ha
1. CCCS(=O)(=O)Nc1cc(-n2nnn(CCCF)c2=O)c(F)cc1Cl [Compound 28]
2. CCS(=O)(=O)N(c1cc(-n2nnn(CCCF)c2=O)c(F)cc1F)S(=O)(=O)CC [Compound 20]
3. CCCS(=O)(=O)N(c1cc(-n2nnn(CCCF)c2=O)c(F)cc1F)S(=O)(=O)CCC [Compound 25]
4. CCCS(=O)(=O)N(c1cc(-n2nnn(CCCF)c2=O)c(F)cc1Cl)S(=O)(=O)CCC [Compound 26]

1: 0%; 2: 20%; 3: 20%; 4: 0%
